Record form. Attribute: Activity. Fill in for each entry.
Tested on: Eimeria maxima
Assay: Anticococcidal activity against Eimeria maxima in Chick assessed as reduction in oocyte at 25 ppm relative to control
Type: functional
Design: scale not given: the % may be the effect or the level left

### Prompt Look up and report measured Activity (Eimeria maxima) for the following compound: CN(C)Cc1ccn2c(-c3ccnc(NCc4ccc(F)c(F)c4)n3)c(-c3ccc(F)cc3)nc2c1
### Response <50%

### Prompt Look up and report measured Activity (Eimeria maxima) for the following compound: CN(C)Cc1ccn2c(-c3ccnc(NS(=O)(=O)c4ccccc4)n3)c(-c3ccc(F)cc3)nc2c1
### Response <50%

### Prompt Look up and report measured Activity (Eimeria maxima) for the following compound: CN(C)Cc1ccn2c(-c3ccnc(NCc4cc(F)ccc4F)n3)c(-c3ccc(F)cc3)nc2c1
### Response 80%

### Prompt Look up and report measured Activity (Eimeria maxima) for the following compound: CN(C)Cc1ccn2c(-c3ccnc(NCc4c(F)cccc4F)n3)c(-c3ccc(F)cc3)nc2c1
### Response 80%

### Prompt Look up and report measured Activity (Eimeria maxima) for the following compound: CN(C)Cc1ccn2c(-c3ccnc(NC4CCC4)n3)c(-c3ccc(F)cc3)nc2c1
### Response 80%

### Prompt Look up and report measured Activity (Eimeria maxima) for the following compound: CN(C)Cc1ccn2c(-c3nc(N)ncc3F)c(-c3ccc(F)cc3)nc2c1
### Response 100%

### Prompt Look up and report measured Activity (Eimeria maxima) for the following compound: CN(C)Cc1ccn2c(-c3ccnc(NC(=O)C4CC4)n3)c(-c3ccc(F)cc3)nc2c1
### Response 50%

### Prompt Look up and report measured Activity (Eimeria maxima) for the following compound: CN(C)Cc1ccn2c(-c3ccnc(N)n3)c(-c3c(F)cc(F)cc3F)nc2c1
### Response 100%

### Prompt Look up and report measured Activity (Eimeria maxima) for the following compound: CN(C)Cc1ccn2c(-c3ccnc(NC4CCCCC4)n3)c(-c3ccc(F)cc3)nc2c1
### Response 80%

### Prompt Look up and report measured Activity (Eimeria maxima) for the following compound: CCNc1nccc(-c2c(-c3ccc(F)cc3)nc3cc(CN(C)C)ccn23)n1
### Response 80%

### Prompt Look up and report measured Activity (Eimeria maxima) for the following compound: COC(=O)Nc1nccc(-c2c(-c3ccc(F)cc3)nc3cc(CN(C)C)ccn23)n1
### Response 80%

### Prompt Look up and report measured Activity (Eimeria maxima) for the following compound: CN(C)Cc1ccn2c(-c3ccnc(NCc4cccc(F)c4)n3)c(-c3ccc(F)cc3)nc2c1
### Response 80%

### Prompt Look up and report measured Activity (Eimeria maxima) for the following compound: CN(C)Cc1ccn2c(-c3ccnc(NCc4ccc(F)cc4)n3)c(-c3ccc(F)cc3)nc2c1
### Response 80%

### Prompt Look up and report measured Activity (Eimeria maxima) for the following compound: CCCCCNc1nccc(-c2c(-c3ccc(F)cc3)nc3cc(CN(C)C)ccn23)n1
### Response 80%

### Prompt Look up and report measured Activity (Eimeria maxima) for the following compound: CN(C)Cc1ccn2c(-c3ccnc(N)n3)c(-c3ccc(F)c(Br)c3)nc2c1
### Response 80%

### Prompt Look up and report measured Activity (Eimeria maxima) for the following compound: Cc1ccccc1CNc1nccc(-c2c(-c3ccc(F)cc3)nc3cc(CN(C)C)ccn23)n1
### Response 50%

### Prompt Look up and report measured Activity (Eimeria maxima) for the following compound: Cc1cccc(CNc2nccc(-c3c(-c4ccc(F)cc4)nc4cc(CN(C)C)ccn34)n2)c1
### Response <50%

### Prompt Look up and report measured Activity (Eimeria maxima) for the following compound: CN(C)Cc1ccn2c(-c3ccnc(NCc4cc(F)cc(F)c4)n3)c(-c3ccc(F)cc3)nc2c1
### Response 80%

### Prompt Look up and report measured Activity (Eimeria maxima) for the following compound: CN(C)Cc1ccn2c(-c3ccnc(NCc4ccc(F)cc4F)n3)c(-c3ccc(F)cc3)nc2c1
### Response 80%

### Prompt Look up and report measured Activity (Eimeria maxima) for the following compound: CN(C)Cc1ccn2c(-c3ccnc(N)n3)c(-c3ccc(F)cc3)nc2c1
### Response 80%

### Prompt Look up and report measured Activity (Eimeria maxima) for the following compound: Cc1ccc(CNc2nccc(-c3c(-c4ccc(F)cc4)nc4cc(CN(C)C)ccn34)n2)cc1
### Response 80%

### Prompt Look up and report measured Activity (Eimeria maxima) for the following compound: CN(C)Cc1ccn2c(-c3ccnc(NCc4ccc(Cl)cc4)n3)c(-c3ccc(F)cc3)nc2c1
### Response <50%

### Prompt Look up and report measured Activity (Eimeria maxima) for the following compound: Cc1cnc(N)nc1-c1c(-c2ccc(F)cc2)nc2cc(CN(C)C)ccn12
### Response 80%

### Prompt Look up and report measured Activity (Eimeria maxima) for the following compound: CN(C)Cc1ccn2c(-c3ccnc(NCC4CC4)n3)c(-c3ccc(F)cc3)nc2c1
### Response 80%

### Prompt Look up and report measured Activity (Eimeria maxima) for the following compound: CCCCC(=O)Nc1nccc(-c2c(-c3ccc(F)cc3)nc3cc(CN(C)C)ccn23)n1
### Response 80%

### Prompt Look up and report measured Activity (Eimeria maxima) for the following compound: CN(C)Cc1ccn2c(-c3nc(N)ncc3C#N)c(-c3ccc(F)cc3)nc2c1
### Response <50%

### Prompt Look up and report measured Activity (Eimeria maxima) for the following compound: CN(C)Cc1ccn2c(-c3ccnc(NC(=O)C4CCC4)n3)c(-c3ccc(F)cc3)nc2c1
### Response 80%

### Prompt Look up and report measured Activity (Eimeria maxima) for the following compound: CN(C)Cc1ccn2c(-c3ccnc(Nc4ccccn4)n3)c(-c3ccc(F)cc3)nc2c1
### Response 80%

### Prompt Look up and report measured Activity (Eimeria maxima) for the following compound: CN(C)Cc1ccn2c(-c3ccnc(NCCO)n3)c(-c3ccc(F)cc3)nc2c1
### Response 80%

### Prompt Look up and report measured Activity (Eimeria maxima) for the following compound: CN(C)Cc1ccn2c(-c3ccnc(NCc4ccccc4F)n3)c(-c3ccc(F)cc3)nc2c1
### Response 80%

### Prompt Look up and report measured Activity (Eimeria maxima) for the following compound: CN(C)Cc1ccn2c(-c3ccnc(NC4CC4)n3)c(-c3ccc(F)cc3)nc2c1
### Response 80%

### Prompt Look up and report measured Activity (Eimeria maxima) for the following compound: CN(C)Cc1ccn2c(-c3ccnc(NS(=O)(=O)Cc4ccccc4)n3)c(-c3ccc(F)cc3)nc2c1
### Response <50%

### Prompt Look up and report measured Activity (Eimeria maxima) for the following compound: CN(C)Cc1ccn2c(-c3ccnc(NCc4cccc(Cl)c4)n3)c(-c3ccc(F)cc3)nc2c1
### Response 80%

### Prompt Look up and report measured Activity (Eimeria maxima) for the following compound: CN(C)Cc1ccn2c(-c3nc(N)ncc3Br)c(-c3ccc(F)cc3)nc2c1
### Response 50%

### Prompt Look up and report measured Activity (Eimeria maxima) for the following compound: COCCCNc1nccc(-c2c(-c3ccc(F)cc3)nc3cc(CN(C)C)ccn23)n1
### Response 50%

### Prompt Look up and report measured Activity (Eimeria maxima) for the following compound: CCCCCCNc1nccc(-c2c(-c3ccc(F)cc3)nc3cc(CN(C)C)ccn23)n1
### Response <50%

### Prompt Look up and report measured Activity (Eimeria maxima) for the following compound: CCC(=O)Nc1nccc(-c2c(-c3ccc(F)cc3)nc3cc(CN(C)C)ccn23)n1
### Response 80%

### Prompt Look up and report measured Activity (Eimeria maxima) for the following compound: CN(C)Cc1ccn2c(-c3ccnc(NCc4ccccc4Cl)n3)c(-c3ccc(F)cc3)nc2c1
### Response 80%

### Prompt Look up and report measured Activity (Eimeria maxima) for the following compound: COCCNc1nccc(-c2c(-c3ccc(F)cc3)nc3cc(CN(C)C)ccn23)n1
### Response 80%

### Prompt Look up and report measured Activity (Eimeria maxima) for the following compound: CN(C)Cc1ccn2c(-c3ccnc(NCc4cccc(F)c4F)n3)c(-c3ccc(F)cc3)nc2c1
### Response <50%

Source listed as ChEMBL document CHEMBL1139934.
